assayedTarget: Human PI3K beta (Homo sapiens)
Construct: His (N); host or cells: SF9 insect cells (baculovirus)
Sequence (P42338 whole entry): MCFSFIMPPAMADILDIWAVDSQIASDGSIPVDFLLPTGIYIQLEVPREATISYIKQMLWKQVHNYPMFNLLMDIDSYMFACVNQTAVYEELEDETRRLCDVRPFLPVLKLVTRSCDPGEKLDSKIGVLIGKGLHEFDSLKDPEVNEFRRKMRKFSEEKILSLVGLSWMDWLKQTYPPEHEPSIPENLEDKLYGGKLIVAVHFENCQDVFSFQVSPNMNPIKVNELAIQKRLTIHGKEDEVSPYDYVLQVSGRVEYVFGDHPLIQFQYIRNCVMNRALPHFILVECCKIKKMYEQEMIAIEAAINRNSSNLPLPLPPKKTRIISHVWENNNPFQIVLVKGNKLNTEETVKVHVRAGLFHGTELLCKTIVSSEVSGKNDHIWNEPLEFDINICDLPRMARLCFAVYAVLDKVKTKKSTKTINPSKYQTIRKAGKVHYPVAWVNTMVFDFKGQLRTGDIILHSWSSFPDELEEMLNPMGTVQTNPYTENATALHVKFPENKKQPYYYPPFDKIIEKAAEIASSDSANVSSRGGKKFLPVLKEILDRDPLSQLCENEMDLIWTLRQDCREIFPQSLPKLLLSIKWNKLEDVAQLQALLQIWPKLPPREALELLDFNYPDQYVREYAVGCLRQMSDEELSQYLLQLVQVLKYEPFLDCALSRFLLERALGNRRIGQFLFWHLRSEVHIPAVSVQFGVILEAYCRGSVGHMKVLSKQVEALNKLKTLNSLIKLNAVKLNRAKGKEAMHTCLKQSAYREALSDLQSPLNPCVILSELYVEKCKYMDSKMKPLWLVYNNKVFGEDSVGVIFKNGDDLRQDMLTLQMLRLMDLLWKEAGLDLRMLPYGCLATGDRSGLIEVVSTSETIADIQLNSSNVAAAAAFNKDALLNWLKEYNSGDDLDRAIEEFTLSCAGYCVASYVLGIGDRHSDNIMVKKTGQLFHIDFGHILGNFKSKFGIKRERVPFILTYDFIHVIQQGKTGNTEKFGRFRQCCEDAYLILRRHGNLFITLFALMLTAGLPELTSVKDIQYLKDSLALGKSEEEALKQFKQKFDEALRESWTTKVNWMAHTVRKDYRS
Sequence (P27986 whole entry partner): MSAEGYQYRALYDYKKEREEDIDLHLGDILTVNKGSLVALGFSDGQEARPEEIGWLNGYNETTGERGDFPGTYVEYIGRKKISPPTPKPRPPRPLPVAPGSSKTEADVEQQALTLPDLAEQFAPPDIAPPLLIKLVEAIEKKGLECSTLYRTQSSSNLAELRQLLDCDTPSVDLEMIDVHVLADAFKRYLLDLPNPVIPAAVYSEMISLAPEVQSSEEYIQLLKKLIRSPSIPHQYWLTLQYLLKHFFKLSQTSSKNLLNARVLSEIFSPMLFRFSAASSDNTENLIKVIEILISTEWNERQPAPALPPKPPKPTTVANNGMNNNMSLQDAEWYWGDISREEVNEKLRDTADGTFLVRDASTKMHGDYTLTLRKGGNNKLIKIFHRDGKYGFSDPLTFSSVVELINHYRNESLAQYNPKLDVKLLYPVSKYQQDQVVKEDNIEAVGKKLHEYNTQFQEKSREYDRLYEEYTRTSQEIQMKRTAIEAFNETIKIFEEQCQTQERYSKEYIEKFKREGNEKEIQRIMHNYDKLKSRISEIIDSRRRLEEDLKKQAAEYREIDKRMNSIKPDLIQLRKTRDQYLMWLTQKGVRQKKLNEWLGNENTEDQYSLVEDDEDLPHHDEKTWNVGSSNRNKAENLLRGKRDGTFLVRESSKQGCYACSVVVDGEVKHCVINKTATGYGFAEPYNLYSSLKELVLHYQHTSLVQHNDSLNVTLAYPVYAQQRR
assayProtocol: Human PI3K beta enzyme assay (HTRF)
Type: biochemical
studyConditions: concentration not given; b1387 states 1.1 μM for PI3K α and β; read-out: p110 beta Percent Inhibition
propertyLabel: inhibition at 1.1 µM (%)
Just the number please, in %, no unit attached.

Here COc1ccc(C(O)c2cc(-c3ccncc3)sc2-c2nnc[nH]2)cn1 (stereo not drawn) [Compound 272] was tested on Human PI3K beta (Homo sapiens), and its inhibition at 1.1 µM came to 96

Here Nc1cc(-c2cc(C(c3ccc(Cl)cc3)N3CCNCC3)c(-c3nnc[nH]3)s2)ccn1 (stereo not drawn) [Compound 254] was tested on Human PI3K beta (Homo sapiens), and its inhibition at 1.1 µM came to 96

Here CC(=O)Nc1cc(-c2nc(C(O)c3ccc(Cl)cc3)c(-c3nnc[nH]3)s2)ccn1 (stereo not drawn) [Compound 238] was tested on Human PI3K beta (Homo sapiens), and its inhibition at 1.1 µM came to 88

Here CC(=O)Nc1cc(-c2cc(C(c3ccc(Cl)cc3)N(C)C3CN(C)C3)c(-c3nnc[nH]3)s2)ccn1 (stereo not drawn) [Compound 160] was tested on Human PI3K beta (Homo sapiens), and its inhibition at 1.1 µM came to 101

Here COCC(c1ccc2ccccc2c1)c1c(C(=O)O)sc(N2CCOCC2)c1C#N (stereo not drawn) [Compound 306] was tested on Human PI3K beta (Homo sapiens), and its inhibition at 1.1 µM came to 109

Here COC(=O)Nc1cc(-c2sc(-c3nnc[nH]3)c(C(O)c3ccc(Cl)cc3)c2C#N)ccn1 (stereo not drawn) [Compound 195] was tested on Human PI3K beta (Homo sapiens), and its inhibition at 1.1 µM came to 74

Here OC(c1ccc(-c2cncnc2)cc1)c1cc(-c2ccncc2)sc1-c1nnc[nH]1 (stereo not drawn) [Compound 236] was tested on Human PI3K beta (Homo sapiens), and its inhibition at 1.1 µM came to 53

Here NS(=O)(=O)c1sc(N2CCOCC2)nc1Cc1ccc2ccccc2c1 [Compound 329] was tested on Human PI3K beta (Homo sapiens), and its inhibition at 1.1 µM came to 112

Here N#Cc1c(-c2ccncc2)sc(C(=O)O)c1Cc1ccc2ccccc2c1 [Compound 143] was tested on Human PI3K beta (Homo sapiens), and its inhibition at 1.1 µM came to 115

Here O=C(O)c1sc(N2CCOCC2)nc1Cc1cc2cc(Br)ccc2s1 [Compound 303] was tested on Human PI3K beta (Homo sapiens), and its inhibition at 1.1 µM came to 110

Here N#Cc1c(-c2ccnnc2)sc(-c2nnc[nH]2)c1C(O)c1ccc2ccccc2c1 (stereo not drawn) [Compound 198] was tested on Human PI3K beta (Homo sapiens), and its inhibition at 1.1 µM came to 108

Here O=C(O)c1sc(N2CCOCC2)nc1Cc1ccc2c(F)cccc2c1 [Compound 340] was tested on Human PI3K beta (Homo sapiens), and its inhibition at 1.1 µM came to 113

Here CC(=O)Nc1cc(-c2nc(Cc3ccc4ccccc4c3)c(-c3nnc[nH]3)s2)ccn1 [Compound 213] was tested on Human PI3K beta (Homo sapiens), and its inhibition at 1.1 µM came to 80

Here COc1cc(C(O)c2cc(-c3ccncc3)sc2-c2nnc[nH]2)c(F)cc1Cl (stereo not drawn) [Compound 279] was tested on Human PI3K beta (Homo sapiens), and its inhibition at 1.1 µM came to 106

Here Cc1c(F)cccc1C(O)c1cc(-c2ccncc2)sc1-c1nnc[nH]1 (stereo not drawn) [Compound 138] was tested on Human PI3K beta (Homo sapiens), and its inhibition at 1.1 µM came to 86

Here Oc1cc(-c2sc(-c3ccncc3)nc2Cc2ccc(Cl)cc2)[nH]n1 [Compound 178] was tested on Human PI3K beta (Homo sapiens), and its inhibition at 1.1 µM came to 109

Here CC(C)C(c1ccc(Cl)cc1)c1nc(N2CCOCC2)sc1C(=O)O (stereo not drawn) [Compound 304] was tested on Human PI3K beta (Homo sapiens), and its inhibition at 1.1 µM came to 25

Here OC(c1ccc(Br)o1)c1cc(-c2ccncc2)sc1-c1nnc[nH]1 (stereo not drawn) [Compound 260] was tested on Human PI3K beta (Homo sapiens), and its inhibition at 1.1 µM came to 74

Here CC(=O)Nc1cc(-c2cc(C(NC(C)C)c3ccc(Cl)cc3)c(-c3nnc[nH]3)s2)ccn1 (stereo not drawn) [Compound 244] was tested on Human PI3K beta (Homo sapiens), and its inhibition at 1.1 µM came to 101

Here CNC1CN(C(c2ccc(Cl)cc2)c2cc(-c3ccnc(NC(C)=O)c3)sc2-c2nnc[nH]2)C1 (stereo not drawn) [Compound 170] was tested on Human PI3K beta (Homo sapiens), and its inhibition at 1.1 µM came to 106

Here CC(=O)Nc1cc(-c2cc(C(NCC3CCCC3)c3ccc(Cl)cc3)c(-c3nnc[nH]3)s2)ccn1 (stereo not drawn) [Compound 240] was tested on Human PI3K beta (Homo sapiens), and its inhibition at 1.1 µM came to 79

Here Cn1c(Cc2nc(N3CCOCC3)sc2C(=O)O)cc2ccccc21 [Compound 302] was tested on Human PI3K beta (Homo sapiens), and its inhibition at 1.1 µM came to 100

Here CN[C@H]1CCN(C(c2ccc(Cl)cc2)c2cc(-c3ccnc(NC(C)=O)c3)sc2-c2nnc[nH]2)C1 (stereo partly drawn) [Compound 163] was tested on Human PI3K beta (Homo sapiens), and its inhibition at 1.1 µM came to 110

Here CC(=O)Nc1cc(-c2cc([C@H](c3ccc(Cl)cc3)N(C)C)c(-c3nnc[nH]3)s2)ccn1 (single isomer, unassigned) [Compound 261] was tested on Human PI3K beta (Homo sapiens), and its inhibition at 1.1 µM came to 113

Here NC(=O)c1ccc2ccc(Cc3nc(N4CCOCC4)sc3C(=O)O)cc2c1 [Compound 318] was tested on Human PI3K beta (Homo sapiens), and its inhibition at 1.1 µM came to 96

Here CC(=O)Nc1cc(-c2sc(-c3nnc[nH]3)c(S(=O)(=O)c3ccc(Cl)cc3)c2C#N)ccn1 [Compound 140] was tested on Human PI3K beta (Homo sapiens), and its inhibition at 1.1 µM came to 47

Here O=C(O)c1sc(N2CCOCC2)c(F)c1Cc1ccc(Cl)c(Cl)c1 [Compound 320] was tested on Human PI3K beta (Homo sapiens), and its inhibition at 1.1 µM came to 94

Here OC(c1ccccc1Cl)c1cc(-c2ccncc2)sc1-c1nnc[nH]1 (stereo not drawn) [Compound 217] was tested on Human PI3K beta (Homo sapiens), and its inhibition at 1.1 µM came to 74

Here CS(=O)(=O)NC(c1ccc(Cl)cc1)c1c(C(=O)O)sc(N2CCOCC2)c1C#N (stereo not drawn) [Compound 317] was tested on Human PI3K beta (Homo sapiens), and its inhibition at 1.1 µM came to 77

Here CC(=O)Nc1cc(-c2cc([C@@H](c3ccc(Cl)cc3)N3CCC3)c(-c3nnc[nH]3)s2)ccn1 (single isomer, unassigned) [Compound 176] was tested on Human PI3K beta (Homo sapiens), and its inhibition at 1.1 µM came to 109

Here CC(C)(C)[S+]([O-])NC(c1ccc(Cl)c(Cl)c1)c1c(C(=O)O)sc(N2CCOCC2)c1C#N (stereo not drawn) [Compound 342] was tested on Human PI3K beta (Homo sapiens), and its inhibition at 1.1 µM came to 80

Here NC(=O)c1sc(N2CCOCC2)nc1Cc1ccc2ccccc2c1 [Compound 334] was tested on Human PI3K beta (Homo sapiens), and its inhibition at 1.1 µM came to 103

Here O=C(O)c1sc(N2CCOCC2)nc1Cc1cc2ccccc2o1 [Compound 341] was tested on Human PI3K beta (Homo sapiens), and its inhibition at 1.1 µM came to 110

The values you see were collected from patent US8796268B2.
